Entries and their measured Kd follow.
# system-name: T1, recombinant human GPC1 protein (R&D Systems) (human, UniProt P35052 24-530)
# T1 construct: Bought recombinant protein (R&D Systems); also called human GPC-1 antigen; Glypican-1
# T1 sequence: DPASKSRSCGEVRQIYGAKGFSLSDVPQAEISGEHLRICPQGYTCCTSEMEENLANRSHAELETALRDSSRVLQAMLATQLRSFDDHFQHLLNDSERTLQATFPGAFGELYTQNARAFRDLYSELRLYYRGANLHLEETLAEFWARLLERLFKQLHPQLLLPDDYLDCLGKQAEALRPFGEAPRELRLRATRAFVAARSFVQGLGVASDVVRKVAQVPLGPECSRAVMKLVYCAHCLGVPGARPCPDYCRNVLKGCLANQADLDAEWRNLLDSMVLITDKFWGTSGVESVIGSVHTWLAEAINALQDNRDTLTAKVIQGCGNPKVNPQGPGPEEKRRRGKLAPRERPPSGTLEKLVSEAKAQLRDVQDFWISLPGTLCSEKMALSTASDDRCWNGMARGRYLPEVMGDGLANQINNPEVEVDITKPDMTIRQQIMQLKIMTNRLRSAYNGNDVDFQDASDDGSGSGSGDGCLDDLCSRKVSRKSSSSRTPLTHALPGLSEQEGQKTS
# experimental-details: SPR (Biacore 8K); antibody captured by anti-human IgG (Fc) on a CM5 chip, recombinant human GPC1 flowed over
Form entry: value (nM) — number only.

Example cases with answers are listed next.
## Task Which value of Kd has been reported for humanized anti-GPC1 monoclonal antibody clone T57 (antibody, human IgG4 S228P, kappa, V domains shown, IgG) VH: QVQLVQSGAEVKKPGASVKVSCKASGYTFTGYYMHWVRQAPGQGLEWMGEINPSTGDTTYNQKFKARVTMTRDTSTSTVYMELSSLRSEDTAVYYCAREKRDDGVFAYWGQGTLVTVSS VL: EIVMTQSPSSLSASVGDRVTISCRTSQTIRHYLNWYQQKPGKAPKLLIYDASNLKTGVPSRFSGSGSGTSFTLTISSLQPDDFATYYCQQSYSTPRTFGQGTKVEIKR in the records?
## Result 102

## Task Another binder to check: humanized anti-GPC1 monoclonal antibody clone T28 (antibody, human IgG4 S228P, kappa, V domains shown, IgG) VH: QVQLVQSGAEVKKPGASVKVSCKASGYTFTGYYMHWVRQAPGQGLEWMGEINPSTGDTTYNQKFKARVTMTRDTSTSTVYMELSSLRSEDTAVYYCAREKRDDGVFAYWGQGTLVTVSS VL: DIQMTQSPSSLSASLGEMVTITCRASESIHSYLNWYQQKPGKAPNLLIYDASNLESGVPSRFSGSGYGTDFTLTISSLQPEDFATYYCQQSYGPPITFGQGTRLEIKR
## Result 21.7

Next item in the queue.
## Task Quick one: Kd for humanized anti-GPC1 monoclonal antibody clone T43 (antibody, human IgG4 S228P, kappa, V domains shown, IgG) VH: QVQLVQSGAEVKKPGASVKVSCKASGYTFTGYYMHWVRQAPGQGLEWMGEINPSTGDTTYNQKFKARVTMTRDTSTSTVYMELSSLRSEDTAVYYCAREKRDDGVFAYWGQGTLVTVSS VL: DIVMTQSPSSLSASVGDRVTITCRASQGIRSALAWYQQKPGKAPKLLIYDASNLQSGVPSRFSGSGSGTDFTLTISDVQAEDFGTYYCQQSFGPPRTFGQGTRLEIKR ?
## Result 62.4
